This section presents compounds with their documented CC50 values.
- ASSAY TEXT: Cytotoxicity against HFF cells
- Assay type: cell-based
- RUN PARAMETERS: human, HFF cells

Entry COC(=O)[C@H](COP1(=O)CO[C@@H](Cn2ccc(N)nc2=O)CO1)NC(=O)[C@@H](N)C(C)C (some centres not stated) : reported CC50 = ?
> 100 µM

Entry "Nc1ccn(C[C@@H](CO)OCP(=O)(O)O)c(=O)n1.O.O" : reported CC50 = ?
> 100 µM

---

- ASSAY TEXT: Cytotoxicity against human KB cells after 48 hrs by crystal violet staining technique
- Format: cell-based
MEASUREMENT TYPE: CC50 at 48 h

Example results:
>  <COMPOUND>
COC(=O)[C@H](COP1(=O)CO[C@@H](Cn2ccc(N)nc2=O)CO1)NC(=O)[C@@H](N)C(C)C (stereo not given in full)

>  <CC50 at 48 h>
> 100 µM

$$$$
>  <COMPOUND>
Nc1ccn(C[C@@H](CO)OCP(=O)(O)O)c(=O)n1.O.O

>  <CC50 at 48 h>
> 100 µM

$$$$
>  <COMPOUND>
Nc1ccn(C[C@H]2COP(=O)(O)CO2)c(=O)n1

>  <CC50 at 48 h>
> 100 µM

$$$$
>  <COMPOUND>
CC(C)OC(=O)[C@H](COP(=O)(O)CO[C@H](CO)Cn1ccc(N)nc1=O)NC(=O)[C@H](N)C(C)C (mixture of isomers)

>  <CC50 at 48 h>
> 100 µM

$$$$

Please look at the following compound next.
Entry "CC(C)OC(=O)[C@H](COP(=O)(O)CO[C@H](CO)Cn1ccc(N)nc1=O)NC(=O)[C@@H](N)C(C)C" : reported CC50 at 48 h = ?
> 100 µM

---

- Test system: HFF
- ASSAY TEXT: Cytotoxicity against HFF cells
- Assay type: cell-based
- RUN PARAMETERS: human, hff
MEASUREMENT TYPE: CC50 (µM)
Report only the number, with the unit µM understood.

Entry "Nc1ccn(C[C@H]2COP(=O)(O)CO2)c(=O)n1" : reported CC50 = ?
100

---

- Tested on: Plasma
- ASSAY TEXT: Drug uptake in fasted Albino Sprague-Dawley rat plasma at 10 mg/kg administered into gastrointestinal tract measured up to 4 hrs
- Assay type: ADME, organism-based
- Design: dose 10 mg/kg
- RUN PARAMETERS: in vivo, other
MEASUREMENT TYPE: Drug uptake

Example results:
>  <COMPOUND>
Nc1ccn(C[C@H]2COP(=O)(O)CO2)c(=O)n1

>  <Drug uptake>
Active

$$$$
>  <COMPOUND>
CCOP(=O)(CO[C@H](CO)Cn1ccc(N)nc1=O)OC[C@H](NC(=O)[C@H](C)N)C(=O)OC (stereo partly specified)

>  <Drug uptake>
Active

$$$$
>  <COMPOUND>
CC(C)OC(=O)[C@H](COP(=O)(O)CO[C@H](CO)Cn1ccc(N)nc1=O)NC(=O)[C@H](N)C(C)C (mixture of isomers)

>  <Drug uptake>
Active

$$$$
>  <COMPOUND>
CC(C)OC(=O)[C@H](COP1(=O)CO[C@@H](Cn2ccc(N)nc2=O)CO1)NC(=O)[C@H](N)C(C)C (stereo partly specified)

>  <Drug uptake>
Active

$$$$

Please look at the following compound next.
Entry "Nc1ccn(C[C@@H](CO)OCP(=O)(O)O)c(=O)n1.O.O" : reported Drug uptake = ?
Active
